Tested on: RXF 393 renal
assayOverview: NCI-60 one-dose screen, 48 h (100 = growth as untreated, 0 = no growth, -100 = all killed)
cond: 10 µM unless noted
Description: Cells are grown in 96 well plates and exposed to the test compound for 48 hours. Compounds are tested at a single concentration, which is 10^-5 M for most compounds. The reported endpoint is percent growth (GI% or GIPRCNT), where numbers from 0 - 100% represent growth inhibition, and numbers from -100% - 0 represent cell death. For example, a value of 40 represents 60% growth inhibition. A value of 0 means no net growth occurred over the course of the experiment. […]
This is part of a sample that, as a whole, favours compounds with a hit. Of some 83,000 tested, about 20% had one in any assay.
# growth >= 40% gives True, anything below gives False

molecule	categoryLabel
CC1(C)N=C(N)N=C(N)N1c1ccc(CCCCc2ccc(S(=O)(=O)F)cc2)c(Cl)c1	True
COc1ccccc1N1CCN(CCc2c[nH]c3cc4c(cc23)OCO4)CC1	True
C[C@]12CCC(=O)CC1CC[C@@H]1C2CC[C@@]2(C)C1CC[C@@H]2OC(=O)CC[Se][Se]CCC(=O)O[C@H]1CCC2[C@@H]3CCC4CC(=O)CC[C@]4(C)C3CC[C@@]21C (stereo partly specified)	True
O=C(O)c1nn(Cc2ccc(Cl)cc2)c2ccccc12	True
CO[C@@H](c1ccccc1Cl)[C@H](C)OC(N)=O	True
CNC(=O)Oc1cc(C(C)C)ccc1Sc1ccc(C(C)C)cc1OC(=O)NC	True
COc1ccc(CN2CCN(Cc3ccccc3)CC2)c(O)c1	True
COc1ccc(C2=NN(c3ccccc3)C(c3sc(N(CCCl)CCCl)nc3Cl)C2)cc1 (stereo unspecified)	True
ClCCN(CCCl)c1nc(Cl)c(C2CC(c3ccc(Cl)cc3)=NN2c2cc(Cl)cc(Cl)c2)s1 (stereo unspecified)	True
CC(C)Nc1ccc(Nc2ccccc2)cc1	True
Cc1cccc(N(C)c2cccc3c2C(=O)[Se]C3)c1C	True
C[C@]12CCc3sc(-c4ccc(Cl)cc4)nc3C1=CC[C@@H]1[C@@H]2CC[C@]2(C)C(=O)CC[C@@H]12	False
CNC(=O)Oc1ccccc1	True
CCCCCCCC(=O)OCC/C=C/C1OC1C1OC(=O)/C=C\C=C\c2nc(oc2C)/C=C(/C)CCC2OC2C1OC(=O)NC(C)=O (stereo unspecified)	False
C[C@@H]1CC[C@@H]2[C@@H]1[C@H](OC(=O)/C=C/C1CCCCC1)[C@]1(C3CCCCC3)C[C@@H](OC(=O)CO)[C@@]2(C)O1	False
CC(C)(C)NCC(O)c1ccccc1Cl (stereo unspecified)	False
O=S(=O)(c1ccc(Cl)cc1)C(Cl)(Cl)Cl	False
CC(=O)[O][Hg][c]1ccccc1	False
NC(=O)OCC(CO)(c1ccccc1)c1ccccc1	True
O=C1c2ccccc2C(=O)N1[N+](=O)[O-]	True
CNC(=O)O/N=C(/C)c1ccc(Cl)cc1	True

====

Listing: growth of selected compounds
Test system: SK-OV-3 ovarian
assayOverview: NCI-60 one-dose screen, 48 h (100 = growth as untreated, 0 = no growth, -100 = all killed)
cond: 10 µM unless noted
Compounds without any hit were thinned out: in the full panel of roughly 83,000, 20% have a hit.

compound	testedSystem	growth, %
CNc1ccc(C(=O)CC(O)CCC(C)C2OC(=O)CC(O)CC(=O)CC(O)CC(O)CC(O)CC(O)CC3(O)CC(O)C(C(=O)OC)C(CC(O[C@@H]4O[C@H](C)[C@@H](O)[C@H](N)[C@@H]4O)/C=C/C=C/C=C/C=C/C=C/C=C/C=C/C2C)O3)cc1 (stereo not given in full)	SK-OV-3 ovarian	2.49
O=S(=O)(F)c1ncnc2nc[nH]c12	SK-OV-3 ovarian	94.7
CNC(=O)Oc1ccccc1	SK-OV-3 ovarian	108
CCC[CH2][Sn]1([CH2]CCC)[O]C(=O)c2cccc([N+](=O)[O-])c2C(=O)[O]1	SK-OV-3 ovarian	12.2
COc1cc(NCCCCCN=C(N)N)c2ncccc2c1	SK-OV-3 ovarian	94.9
C[C@]12CCc3sc(-c4ccc(Cl)cc4)nc3C1=CC[C@@H]1[C@@H]2CC[C@]2(C)C(=O)CC[C@@H]12	SK-OV-3 ovarian	79.2
CC(=O)N1N=C(c2ccccc2)CC1c1sc(N(CCCl)CCCl)nc1Cl (stereo not given)	SK-OV-3 ovarian	89.4
COC1=CC(=O)OC(CCc2ccc3c(c2)OCO3)C1 (stereo not given)	SK-OV-3 ovarian	112
C=CC(=O)NC(O)C(Cl)(Cl)Cl (stereo not given)	SK-OV-3 ovarian	98.2
CC(C)(C)N(Cc1ccccc1)N=O	SK-OV-3 ovarian	96.2

====

Tested on: HL-60(TB) leukemia
assayOverview: NCI-60 one-dose screen, 48 h
cond: 10 µM unless noted
The panel holds about 83,000 compounds, 20% with a hit somewhere; the sample as a whole holds those more often. Activity calls are given as the source filed them. The calls were made as follows: active = growth percent below 10; inactive = the rest.
Outcomes: active, inactive

compound	testedSystem	categoryLabel
COc1cccc(OC)c1C(=O)N[C@@H]1C(=O)N2[C@@H]1SC(C)(C)[C@@H]2C(=O)O	HL-60(TB) leukemia	inactive
OC1(c2ccc(Cl)c(C(F)(F)F)c2)CCN(CCCC(c2ccc(F)cc2)c2ccc(F)cc2)CC1	HL-60(TB) leukemia	active
COc1cccc(/C=C/C(=O)c2cc3c(N)c(C(=O)Nc4cccc(Cl)c4C)sc3nc2C)c1	HL-60(TB) leukemia	active
O=C1/C(=C/c2cc(F)cc(F)c2)Cc2cc(F)cc(F)c21	HL-60(TB) leukemia	inactive
CSc1nc2c(c(=O)[nH]1)C(c1ccc(C)cc1)C=C(C(=O)O)N2 (stereo not given)	HL-60(TB) leukemia	inactive

====

System: HCT-116 colon
assayOverview: NCI-60 one-dose screen, 48 h (100 = growth as untreated, 0 = no growth, -100 = all killed)
cond: 10 µM unless noted
Compounds without any hit were thinned out: in the full panel of roughly 83,000, 20% have a hit.
Examples of compounds with documented growth follow.

compound	unitsOfMeasure	growth
O=C(Nc1ccc(S(=O)(=O)F)cc1)Oc1ccccc1	%	116
O=C(N/N=C/c1ccc(N(CCCl)CCCl)cc1)c1cc(=O)[nH]c(=O)[nH]1	%	90.7
CCC1CN1P(=O)(OCCOC)N1CC1CC (centres undefined)	%	104
COc1ccc(C2=NN(c3ccccc3)C(c3sc(N(CCCl)CCCl)nc3Cl)C2)cc1 (centres undefined)	%	67
NC(=O)NC(=O)CI	%	36.8
CCOC(=O)c1cnc(SCc2ccc(Cl)c(Cl)c2)nc1N1CC1	%	23.5
CC(CC(C#N)(c1ccccc1)c1ccccc1)N1CCOCC1 (centres undefined)	%	106
ClCCN(CCCl)c1ccc(/C=C\c2ccnc3ccccc23)cc1	%	52.2
CCOC(=O)/C(C#N)=C/c1ccc(N(CCCl)CCCl)cc1	%	97
O=C(C(=O)N1CCCC1)c1cn(CCCCCn2cc(C(=O)C(=O)N3CCCC3)c3ccccc32)c2ccccc12	%	94.1
O=C(CC1(O)C(=O)Nc2ccc(F)cc21)c1ccc(C(=O)NCC2CCC3(CC2)OOC2(CCCCC2)OO3)cc1 (centres undefined)	%	69.7
ClCCN(CCCl)c1nc(Cl)c(C2CC(c3ccccc3)=NN2c2ccccc2)s1 (centres undefined)	%	78.3
C1CN1c1nc(N2CC2)nc(N2CC2)n1	%	42.6
Nc1cccc2c1Oc1ccccc1O2	%	93.3
CCCCCN(CCCCC)CC(O)c1ccc(C)c(Cl)c1 (centres undefined)	%	82.1
COc1ccc(/C=C(/C(=O)N2CCCC2)c2cc(OC)c(OC)c(OC)c2)cc1N	%	23.5
CC1=C(SCCC(=O)OCC(=O)NCCC[Te]c2ccccc2)C(=O)c2ccccc2C1=O	%	-12.9
CNC(=O)Oc1cccc(OC)c1	%	103
Cc1ccc(C[As+](c2ccccc2)(c2ccccc2)c2ccccc2)cc1	%	2.52
C[CH2][Pb]([CH2]C)([CH2]C)[O]C(=O)c1ccc(N)cc1	%	57.7
ClCCN(CCCl)C(c1ccccc1)c1ccc(Cl)cc1 (centres undefined)	%	79.5
COc1cc(N(CCCl)CCCl)ccc1C=Nc1ccccc1C(=O)O	%	108
CC1(CF)NC(=O)NC1=O (centres undefined)	%	103
Nc1ccc(N)c2c1Oc1ccccc1O2	%	95.7

====

System: MCF7 breast
assayOverview: NCI-60 one-dose screen, 48 h
cond: 10 µM unless noted
Description: Growth inhibition of the MCF7 human tumor cell line is measured as a screen for anti-cancer activity. Cells are grown in 96 well plates and exposed to the test compound for 48 hours. Compounds are tested at a single concentration, which is 10^-5 M for most compounds. The reported endpoint is percent growth (GI% or GIPRCNT), where numbers from 0 - 100% represent growth inhibition, and numbers from -100% - 0 represent cell death. For example, a value of 40 represents 60% growth inhibition. […]
This is part of a sample that, as a whole, favours compounds with a hit. Of some 83,000 tested, about 20% had one in any assay. Calls of active or inactive are those of the source. How the source made its calls: active means growth percent below 10; inactive means the rest.
Possible outcomes: active, inactive

compound	categoryLabel
CC(/C=N/N=C(N)N)=N/N=C(N)N	inactive
Cc1cc(N(CCCl)CCCl)ccc1C=Nc1ccc2ccccc2c1	inactive
C[C@@H]1O[C@@H](O[C@H]2CC[C@@]3(C)[C@H](CCC4[C@@H]3C(O)C[C@]3(C)[C@@H](c5ccc(=O)oc5)CC[C@]43O)C2)[C@H](O)[C@H](O)[C@H]1O (stereo partly specified)	active
CC1COC(=O)C1 (stereo unspecified)	inactive
Cc1cccc(N(C)c2cccc3c2C(=O)[Se]C3)c1C	inactive
CCCCN(CCCC)CC(O)c1ccccc1 (stereo unspecified)	inactive
CC(C)Nc1ccc(Nc2ccccc2)cc1	inactive
OB([O][Hg][c]1ccccc1)[O][Hg][c]1ccccc1	active
CC(C)(NC(=O)c1nn(CCCCCF)c2ccccc12)c1ccccc1	inactive
CCOP(=O)(OCC)Oc1ccc(Sc2ccc(OP(=O)(OCC)OCC)cc2)cc1	inactive
O=C(N/N=C/c1ccc(N(CCCl)CCCl)cc1)c1cc(=O)[nH]c(=O)[nH]1	inactive
